Where these numbers come from: patent US9796741B2

Molecular target: Human factor D (Homo sapiens (Human), UniProt P00746)
Sequence (P00746 26-253): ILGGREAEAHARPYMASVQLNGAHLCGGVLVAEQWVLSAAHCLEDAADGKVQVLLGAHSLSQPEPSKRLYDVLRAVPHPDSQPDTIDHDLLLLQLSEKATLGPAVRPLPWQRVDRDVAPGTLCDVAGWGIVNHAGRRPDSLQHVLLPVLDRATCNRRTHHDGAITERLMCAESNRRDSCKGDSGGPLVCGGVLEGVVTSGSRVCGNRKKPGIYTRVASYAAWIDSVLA
Experiment: Human Factor D Assay
Assay type: biochemical
Conditions: human factor D 80 nM, substrate Z-L-Lys-SBzl, DTNB
Give measured IC50 for each item. Keep answers brief.

*Q* // IC50 lookup, key: "NC(=O)c1nn(CC(=O)N2C[C@H](F)C[C@H]2C(=O)Nc2nc(-c3ccc4c(c3)CCCC4)cs2)c2ccc(-c3ccnnc3)cc12"
*A* > 10 µM

*Q* What does the data say about its IC50? Entry: "CC(=O)c1cn(CC(=O)N2C[C@H](F)C[C@H]2C(=O)NCc2ccccn2)c2ccc(-c3ccnnc3)cc12"
*A* < 1 µM

*Q* Give its IC50 value. Item: "CC(=O)c1cn(CC(=O)N2C[C@H](F)C[C@H]2C(=O)Nc2noc3cc(C(F)(F)F)ccc23)c2ccc(-c3ccnnc3)cc12"
*A* > 10 µM

*Q* For "CC(=O)c1cn(CC(=O)N2C[C@H](F)C[C@H]2C(=O)NCc2cc(F)cc(Cl)c2)c2ccc(-c3ccnnc3)cc12" , what is its reported IC50?
*A* < 1 µM

*Q* Request the reported IC50 associated with "CC(=O)c1cn(CC(=O)N2C[C@H](F)C[C@H]2C(=O)Nc2cccc(-c3ccccc3Cl)c2F)c2ccc(N3CCN(S(C)(=O)=O)CC3)cc12"
*A* < 1 µM

*Q* // query IC50 value for entry "COc1ncc(-c2ccc3c(c2)c(C(C)=O)cn3CC(=O)N2[C@@H]3C[C@@H]3C[C@H]2C(=O)Nc2cccc(-c3ccccc3Cl)c2F)cn1"
*A* < 1 µM

---

Biological target: Human factor D (Homo sapiens (Human), UniProt P00746)
Assay: Human Factor D Assay
Format: biochemical
Conditions: human factor D 80 nM, substrate Z-L-Lys-SBzl, DTNB
Would you kindly list IC50 for each of these molecules?

*Q* IC50 for CC(=O)c1cn(CC(=O)N2C[C@H](F)C[C@H]2C(=O)N[C@@H]2CCC[C@H]2O)c2ccc(-c3ccnnc3)cc12 [Compound 143] ?
*A* > 10000 nM

*Q* Record request: IC50 value, item CC(=O)c1cn(CC(=O)N2C[C@H](F)C[C@H]2C(=O)Nc2cccc(Cl)n2)c2ccc(-c3cnc(C)nc3)cc12 [Compound 137]
*A* < 1000 nM

*Q* Which measured IC50 value corresponds to CC(=O)c1cn(CC(=O)N2[C@@H]3C[C@@H]3C[C@H]2C(=O)NCc2cccc(Cl)c2F)c2ccc(-c3cnc(C)nc3)cc12 [Compound 134] ?
*A* < 1000 nM

*Q* Give the measured IC50 of CC(=O)c1cn(CC(=O)N2C[C@H](F)C[C@H]2C(=O)Nc2cccc(-c3ccccc3Cl)c2F)c2ccc(-c3cnc(O)nc3)cc12 [Compound 186] .
*A* < 1000 nM

*Q* Entry CC(=O)c1cn(CC(=O)N2C[C@H](F)C[C@H]2C(=O)NCc2cccc(Cl)c2)c2ccc(-c3ccnnc3)cc12 [Compound 44] has what IC50?
*A* < 1000 nM

*Q* Which IC50 is listed for NC(=O)c1nn(CC(=O)N2C[C@H](F)C[C@H]2C(=O)N[C@@H]2CCC[C@H]2O)c2ccc(-c3ccnnc3)cc12 [Compound 145] ?
*A* > 10000 nM

*Q* Requested field: IC50. Item: CC(=O)c1cn(CC(=O)N2C[C@H](F)C[C@H]2C(=O)Nc2cccc(-c3ccccc3Cl)c2F)c2ccc(N3CCN(C(C)=O)CC3)cc12 [Compound 16]
*A* < 1000 nM

*Q* Looking for the measured IC50 of CCN1Cc2ccc(NC(=O)[C@@H]3C[C@@H](F)CN3C(=O)Cn3nc(C(N)=O)c4cc(-c5ccnnc5)ccc43)cc2C1=O [Compound 48] , can you help?
*A* > 10000 nM

*Q* Data request, read-out IC50, for CC(=O)c1cn(CC(=O)N2C[C@H](F)C[C@H]2C(=O)Nc2cncc(Cl)n2)c2ccc(-c3ccnnc3)cc12 [Compound 88]
*A* < 1000 nM

*Q* Entry under review: NC(=O)c1nn(CC(=O)N2C[C@H](F)C[C@H]2C(=O)Nc2ccc3cn[nH]c3c2)c2ccc(-c3ccnnc3)cc12 [Compound 86] . Reported IC50?
*A* > 10000 nM

*Q* Entry CC(=O)c1cn(CC(=O)N2C[C@H](F)C[C@H]2C(=O)Nc2cccc3c2NC(=O)C(C)O3)c2ccc(-c3ccnnc3)cc12 (stereo partly shown) [Compound 153] : reported IC50 = ?
*A* > 10000 nM

*Q* Please look up its IC50: CC(=O)c1cn(CC(=O)N2[C@@H]3C[C@@H]3C[C@H]2C(=O)Nc2cccc(-c3ccccc3Cl)c2F)c2ccc(-c3cnc(C)nc3)cc12 [Compound 133]
*A* < 1000 nM

*Q* // query IC50 value for entry CC(=O)c1cn(CC(=O)N2C[C@H](F)C[C@H]2C(=O)Nc2cccc(Br)n2)c2ccc(-c3cncnc3)cc12 [Compound 14]
*A* < 1000 nM
